# target_of_assay: Cytochrome P450 2D6 (Homo sapiens) (UniProt P10635)
# Sequence (P10635 whole entry, looked up): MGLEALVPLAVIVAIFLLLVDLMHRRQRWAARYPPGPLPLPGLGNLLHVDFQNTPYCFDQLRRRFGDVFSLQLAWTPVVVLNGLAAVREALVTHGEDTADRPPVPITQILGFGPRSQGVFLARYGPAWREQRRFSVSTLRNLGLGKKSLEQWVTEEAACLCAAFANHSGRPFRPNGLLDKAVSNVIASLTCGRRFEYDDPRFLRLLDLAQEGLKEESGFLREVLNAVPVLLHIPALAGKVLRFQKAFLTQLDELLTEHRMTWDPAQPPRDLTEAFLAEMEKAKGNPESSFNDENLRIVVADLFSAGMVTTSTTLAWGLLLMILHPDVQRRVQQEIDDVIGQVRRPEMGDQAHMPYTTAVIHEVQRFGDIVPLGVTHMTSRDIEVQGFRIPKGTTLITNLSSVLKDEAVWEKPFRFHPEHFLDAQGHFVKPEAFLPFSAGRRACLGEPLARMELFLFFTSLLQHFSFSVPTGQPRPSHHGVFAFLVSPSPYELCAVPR
# assay_explanation: Cytochrome P450 Family 2 Subfamily D Member 6 (CYP2D6) small molecule antagonists: luciferase reporter qHTS assay (AID 1671196); further: nearly all actives have a fitted effect of over 50% in size
# assay_context: P450-Glo CYP2D6 enzyme assay, luciferin luminescence, 1 h; series mostly up to 115 µM
Results filed as inconclusive are left out. Activity calls are given as the source filed them. The call rests on the fitted dose curve; in most records, active means well fitted inhibition curve with a large enough effect in the repeat runs; inconclusive means weak or mixed curves; inactive means no such curve, though single readings can be large or run the other way.
Your response should consist of one outcome taken from yes for active, no for inactive

compound | class_assignment
CO[Si](CCCNc1ccccc1)(OC)OC | no
O=C(Nc1ccc(Oc2ccc(Cl)cc2)c(Cl)c1)c1cc(I)cc(I)c1O | no
CCc1oc2ccccc2c1C(=O)c1cc(Br)c(O)c(Br)c1 | no
Cc1[nH]cnc1C[C@H]1CCc2c(C)c3ccccc3n2C1=O | yes

Kindly review the next compound as well.
// param item: `CN(C)c1ccc(C2(c3ccc(N(C)C)cc3)OC(=O)c3cc(N(C)C)ccc32)cc1` ; yields the recorded call
no

###

# assay_explanation: A CellTox Green Cytotoxicity Assay to monitor cytotoxicity in HEK293 cells - 32 hour (AID 1224881); further: nearly all actives have a fitted effect of over 40% in size
# assay_context: CellTox Green fluorescence; series mostly up to 76.8 µM
Records with an inconclusive call do not appear. Calls of active or inactive are those of the source. Calls come from the whole dose curve; as a rule, active = well fitted activation curve with a large enough effect in the repeat runs; inconclusive = weak or mixed curves; inactive = flat fitted curve, though single readings scatter.
Write down the outcome that applies. Available outcomes: yes (1) = active, no (0) = inactive

compound | class_assignment
COc1ccc(CN2CCN(C(c3ccc(F)cc3)c3ccc(F)cc3)CC2)c(OC)c1OC | no (0)
COc1cc(/C=C/C(=O)O[C@H]2CC[C@]34C[C@]35CC[C@]3(C)[C@@H]([C@H](C)CCC=C(C)C)CC[C@@]3(C)[C@@H]5CC[C@H]4C2(C)C)ccc1O | no (0)
CC(=O)S[C@@H]1CC2=CC(=O)CC[C@]2(C)[C@H]2CC[C@@]3(C)[C@@H](CC[C@@]34CCC(=O)O4)[C@H]12 | no (0)
CC[C@@]1(O)C(=O)OCc2c1cc1n(c2=O)Cc2c-1nc1ccccc1c2/C=N/OC(C)(C)C | no (0)

What did this assay record as the result for `N#CSc1ccc(N)c([N+](=O)[O-])c1` ?
no (0)

`O=c1[nH]sc2ccccc12` ?
yes (1)

Next up: `CCOC(=O)c1nc(C(Cl)(Cl)Cl)n(-c2ccc(Cl)cc2Cl)n1`
no (0)

Next entry: `N/C(=N\N=C\c1ccc(Cl)cc1)N/N=C/c1ccc(Cl)cc1`
yes (1)

Then `Oc1cccc(-c2c3nc(c(-c4cccc(O)c4)c4ccc([nH]4)c(-c4cccc(O)c4)c4nc(c(-c5cccc(O)c5)c5ccc2[nH]5)CC4)C=C3)c1` ?
no (0)

###

# target_of_assay: Voltage-gated inwardly rectifying potassium channel KCNH2 (Homo sapiens)
# assay_explanation: Human Ether-a-go-go-Related Gene (hERG) channel small molecule antagonists: fluorescence cell-based qHTS assay (AID 1671200); further: nearly all actives have a fitted effect of over 50% in size; further: potency means the concentration at half of the fitted maximal effect
# assay_context: hERG-U2OS cells, FluxOR thallium flux fluorescence; series mostly up to 76.8 µM
Results filed as inconclusive are left out. Activity calls are given as the source filed them. Calls come from the whole dose curve; as a rule, active = well fitted inhibition curve with a large enough effect in the repeat runs; inconclusive = weak or mixed curves; inactive = flat fitted curve, though single readings scatter.
measured_parameter: Potency

# example entries with known answers
compound | target_of_assay | measured_parameter | result
O=C(O)c1c(Cl)cccc1Cl | Voltage-gated inwardly rectifying potassium channel KCNH2 (Homo sapiens) | Potency | inactive
O=C(O)c1cc(O)c2c(c1)C(=O)c1cccc(O)c1C2=O | Voltage-gated inwardly rectifying potassium channel KCNH2 (Homo sapiens) | Potency | inactive
CCc1oc2ccccc2c1C(=O)c1cc(Br)c(O)c(Br)c1 | Voltage-gated inwardly rectifying potassium channel KCNH2 (Homo sapiens) | Potency | 10.7 µM (active)
CC(C)C(C)(C)C(C)(C)C(C)(C)S | Voltage-gated inwardly rectifying potassium channel KCNH2 (Homo sapiens) | Potency | inactive
Cc1cc2c(cc1C(F)(F)F)N(C(=O)Nc1ccc(Oc3cccnc3C)nc1)CC2 | Voltage-gated inwardly rectifying potassium channel KCNH2 (Homo sapiens) | Potency | inactive

Need Potency of `O=CC=C(c1ccccc1)c1ccccc1` , thanks.
39.2 µM (active)

Subsequent entry: `O=c1[nH]sc2ccccc12`
49 µM (active)

What do you get for `O=[N+]([O-])c1cc(Cl)c(Cl)c(Cl)c1Cl` ?
inactive

Also CCCC(C)c1ccccc1O (stereo not drawn) , if possible.
inactive

Input `N/C(=N\N=C\c1ccc(Cl)cc1)N/N=C/c1ccc(Cl)cc1`
2.39 µM (active)

###

# target_of_assay: Glucocorticoid receptor (Homo sapiens)
# assay_explanation: qHTS assay to identify small molecule antagonists of the glucocorticoid receptor (GR) signaling pathway (AID 720692)
# assay_context: GR-bla HeLa, beta-lactamase FRET ratio, dexamethasone-stimulated, 18 h; series mostly up to 58.5 µM
Records with an inconclusive call do not appear. Activity calls are given as the source filed them. The call rests on the fitted dose curve; in most records, active means well fitted inhibition curve with a large enough effect in the signal ratio in the repeat runs (not every such curve was filed as active); inconclusive means weak or mixed curves, or effect the other way; inactive means no such curve, though single readings can be large or run the other way; the % refers to the signal ratio.
Entry note: the call must match one of yes = active, no = inactive

Illustrative cases are given below, each with its answer.
compound | class_assignment
CCN(C(=O)N(CC)c1ccccc1)c1ccccc1 | no
c1cc(C(c2ccc(OCC3CO3)cc2)c2ccc(OCC3CO3)cc2)ccc1OCC1CO1 (stereo not drawn) | yes
CC(C)=CCOc1ccc(/C=C/C(=O)c2ccc(OCC=C(C)C)cc2OCC(=O)O)cc1 | yes
Cc1cc2c(cc1C(F)(F)F)N(C(=O)Nc1ccc(Oc3cccnc3C)nc1)CC2 | no
Nc1c(Cl)cc(Cl)cc1Cl | no
COc1ccc(C(=O)/C(Br)=C\C(=O)O)cc1 | no
CCCCCOC(=O)CCCC | no
CCCC(C)c1ccccc1O (stereo not drawn) | no

Recorded test call requested for `CCc1oc2ccccc2c1C(=O)c1cc(Br)c(O)c(Br)c1`
yes

Another: `CC(C)(C)c1ccc(C(=O)O)cc1`
no

What about this compound? `Cc1ccc(O)c2ncccc12`
no

Also `CO[Si](CCCNc1ccccc1)(OC)OC` ?
no

Can you check `Cc1ccc2oc(CN(Cc3ccccc3)C(=O)Nc3c(F)cc(F)cc3F)c(-c3ccc(Cl)cc3)c2c1` next?
no

###

# assay_explanation: qHTS assay to identify small molecule antagonists of the estrogen related receptor signaling pathway with the pleiotropic PPARgamma coactivator (PGC) from Tox21 10K library - cell viability counter screen (AID 1224840); further: on the % scale 0 is the no-effect control and ±100 the full control effect; nearly all actives have a fitted effect of over 40% in size
# assay_context: PGC/ERR reporter cells viability, CellTiter-Fluor, 17.5 h; series mostly up to 92.4 µM
Records with an inconclusive call do not appear. Calls of active or inactive are those of the source. Calls follow the shape of the dose curve; as a rule, active = well fitted cell-killing curve with a large enough effect in the repeat runs (not every such curve was filed as active); inconclusive = weak or mixed curves, or effect the other way; inactive = no such curve, though single readings can be large or run the other way.
Your response should consist of one outcome taken from 1 (active), -1 (inactive)

compound | class_assignment
CC[C@H](c1ccc(O)cc1)[C@@H](CC)c1ccc(O)cc1 | -1

Could you now consider this next compound?
What call does the record list for `CCOC(=O)/C=C(C)/C=C/C=C(C)/C=C/c1c(C)cc(OC)c(C)c1C` ?
-1

###

# assay_explanation: A CellTox Green Cytotoxicity Assay to monitor cytotoxicity in HepG2 cells - 0 hour (AID 1224882); further: on the % scale 0 is the no-effect control and ±100 the full control effect; nearly all actives have a fitted effect of over 35% in size
# assay_context: CellTox Green fluorescence; series mostly up to 76.8 µM
The source made the active and inactive calls. The call rests on the fitted dose curve; in most records, active means well fitted activation curve with a large enough effect in the repeat runs; inconclusive means weak or mixed curves; inactive means flat fitted curve, though single readings scatter.
API: response.call in label 1 = active, label 0 = inactive

molecule | class_assignment
Cn1cc(C(=O)[C@@H]2CCc3nc[nH]c3C2)c2ccccc21 | label 0

Please share the test call associated with `Cc1ccc(-n2nc(C(C)(C)C)cc2NC(=O)Nc2ccc(OCCN3CCOCC3)c3ccccc23)cc1` .
label 0

Please give the result for `Clc1ccc2nsnc2c1NC1=NCCN1` too.
label 0

Param item: `Cc1cc2c(cc1C(F)(F)F)N(C(=O)Nc1ccc(Oc3cccnc3C)nc1)CC2`
label 0

###

# assay_explanation: qHTS assay to identify small molecule antagonists of the progesterone receptor (PR) signaling pathway - cell viability counter screen (AID 1346798); further: nearly all actives have a fitted effect of over 50% in size
# assay_context: PR-UAS-bla HEK293T viability, CellTiter-Glo luminescence, 16 h; series mostly up to 92.4 µM
Records with an inconclusive call do not appear. Activity calls are given as the source filed them. Calls follow the shape of the dose curve; as a rule, active = well fitted cell-killing curve with a large enough effect in the repeat runs; inconclusive = weak or mixed curves, or effect the other way; inactive = no such curve, though single readings can be large or run the other way.
Valid outcomes are listed here; reply with one: 1 (active), -1 (inactive)

molecule | class_assignment
O=C1C=CC(=O)N1c1ccc(Cc2ccc(N3C(=O)C=CC3=O)cc2)cc1 | -1
CCCCCCCCCCCCc1ccc(O)cc1 | 1
CCCCCOC(=O)CCCC | -1
OC1(c2ccc(Cl)c(C(F)(F)F)c2)CCN(CCCC(c2ccc(F)cc2)c2ccc(F)cc2)CC1 | 1
COc1cccc(N)c1 | -1

Called result for `CCCCCCCC[P+](CCCCCCCC)(CCCCCCCC)CCCCCCCC`
1

Next entry: `CC[C@@]1(O)C(=O)OCc2c1cc1n(c2=O)Cc2c-1nc1ccccc1c2/C=N/OC(C)(C)C`
-1

###

# assay_explanation: qHTS RealTime-Glo MT Cell Viability Assay in HEK293 cells - 32 hour (AID 1224868); further: nearly all actives have a fitted effect of over 50% in size
# assay_context: RealTime-Glo luminescence; series mostly up to 76.8 µM
Records with an inconclusive call do not appear. Activity calls are given as the source filed them. Calls come from the whole dose curve; as a rule, active = well fitted cell-killing curve with a large enough effect in the repeat runs; inconclusive = weak or mixed curves, or effect the other way; inactive = flat fitted curve, though single readings scatter.
Write down the outcome that applies. Available outcomes: active, inactive

Worked examples, 3 compounds total:
compound | class_assignment
Nc1ccc2cc(S(=O)(=O)O)cc(O)c2c1N=Nc1ccccc1C(F)(F)F | inactive
CCCN(CCC)c1c([N+](=O)[O-])cc(C(F)(F)F)c(N)c1[N+](=O)[O-] | active
CCCCCCCCNC(C)C(O)c1ccc(SC(C)C)cc1 (stereo not given) | active

How did this test come out for `Oc1cc2ccccc2c2ccccc12` ?
active

`COc1cc(-c2nc(NC(=O)c3cc4cc(C)cc(C)c4n3CC(=O)O)sc2CCC2CCCCC2)c(OC)cc1Cl` , same question.
active
